Biological target: DDR1 kinase (Homo sapiens, UniProt Q08345)
Sequence (Q08345 19-876 isoform Q08345-2 limits assumed): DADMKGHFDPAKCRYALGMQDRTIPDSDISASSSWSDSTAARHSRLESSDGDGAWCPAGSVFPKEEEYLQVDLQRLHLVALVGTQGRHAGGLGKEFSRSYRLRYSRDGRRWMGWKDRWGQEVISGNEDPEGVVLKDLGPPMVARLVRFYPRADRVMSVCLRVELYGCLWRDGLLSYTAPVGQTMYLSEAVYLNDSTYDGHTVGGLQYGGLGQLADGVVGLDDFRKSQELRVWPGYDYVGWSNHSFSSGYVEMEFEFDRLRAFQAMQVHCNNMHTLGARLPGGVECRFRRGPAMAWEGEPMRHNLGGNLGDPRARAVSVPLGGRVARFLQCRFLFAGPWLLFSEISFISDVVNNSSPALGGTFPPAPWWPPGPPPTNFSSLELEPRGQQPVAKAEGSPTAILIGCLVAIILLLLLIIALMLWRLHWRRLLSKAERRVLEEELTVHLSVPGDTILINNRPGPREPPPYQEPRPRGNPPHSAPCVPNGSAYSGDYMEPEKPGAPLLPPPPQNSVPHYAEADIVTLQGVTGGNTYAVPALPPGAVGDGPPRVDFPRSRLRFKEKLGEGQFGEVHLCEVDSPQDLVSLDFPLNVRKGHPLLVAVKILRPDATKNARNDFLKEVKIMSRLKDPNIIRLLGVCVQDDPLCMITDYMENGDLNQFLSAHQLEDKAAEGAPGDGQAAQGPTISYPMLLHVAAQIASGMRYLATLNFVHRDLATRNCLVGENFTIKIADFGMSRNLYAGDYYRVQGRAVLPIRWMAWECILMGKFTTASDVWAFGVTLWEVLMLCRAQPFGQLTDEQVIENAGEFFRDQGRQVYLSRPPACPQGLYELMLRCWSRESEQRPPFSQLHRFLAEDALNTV
Assay: Evaluation of DDR1 kinase inhibition (LANCE Ultra TR-FRET kinase assay)
Format: biochemical
Parameters: purchased Carna Biosciences 08-113
Conditions: DDR1 protein 0.5 nM, LANCE Ultra ULight-poly GAT substrate, 2 hours at room temperature, duplicate; read-out: DDR-1 IC50
Counter-ions that a name gives are not always drawn.
Returns the class for an entry based on its IC50. Class ranges: low: < 6 nM; moderate: ≥ 6 nM and < 30 nM; high: ≥ 30 nM

COMPOUND	TARGET SYSTEM	CLASS NAME
CNc1cc(C(=O)N2CC(c3nn(CC(=O)NCC(F)(F)F)c4cccc(Cl)c34)C2)ccn1	DDR1 kinase (Homo sapiens, UniProt Q08345)	low

Ask: Lab note: which band did Cc1[nH]ncc1C(=O)N1CC(c2nn(CC(=O)N3CCC[C@H]3C(F)(F)F)c3cc(F)cc(F)c23)C1 land in?
Result: moderate

Ask: Lab note: which band did Nc1nccc(C(=O)N2CC(c3nn(CC(=O)N4CCC[C@H]4C(F)(F)F)c4cc(F)cc(F)c34)C2)n1 land in?
Result: moderate

Ask: Lab note: which band did Cc1c(C(=O)N2CC(c3nn(CC(=O)N4CCO[C@H](C(F)(F)F)C4)c4cc(F)cc(F)c34)C2)ccnc1N [Compound E-89, hydrochloride] land in?
Result: high

Ask: Lab note: which band did Nc1cc(C(=O)N2CC(c3nn(CC(=O)N4CCC[C@H]4COC(F)(F)F)c4cncc(F)c34)C2)c(F)cn1 [Compound E-58, di-p-toluenesulfonate] land in?
Result: low

Ask: Lab note: which band did Nc1cc(C(=O)N2CC(c3nn(Cc4cccc(C(F)(F)F)c4)c4cccc(F)c34)C2)ccn1 [Compound E-113, hydrochloride] land in?
Result: moderate

Ask: Lab note: which band did CN(CC(F)(F)F)C(=O)Cn1nc(C2CN(C(=O)c3ccnc(N)n3)C2)c2ccc(F)cc21 land in?
Result: high

Ask: Lab note: which band did Nc1cc(C(=O)N2CC(c3nn(Cc4cn(CC5CC(F)(F)C5)nn4)c4cccc(F)c34)C2)ccn1 [Compound E-19, hydrochloride] land in?
Result: high

Ask: Lab note: which band did O=C(c1ccncc1F)N1CC(c2nn(CC(=O)N3CCC[C@H]3C(F)(F)F)c3cc(F)cc(F)c23)C1 land in?
Result: moderate

Ask: Lab note: which band did CC1(C)COCCN1C(=O)Cn1nc(C2CN(C(=O)c3ccnc(N)c3)C2)c2ccccc21 land in?
Result: moderate

Ask: Lab note: which band did Nc1cc(C(=O)N2CC(c3nn(Cc4cn(CC5CC5)nn4)c4cccc(F)c34)C2)ccn1 [Compound E-37, hydrochloride] land in?
Result: high
